- measurement description: Human HepG2 cell viability assay in 384 well format
- Format: toxicity, cell-based
- Set-up: dose 125 nL, time 70.5 hour; concentration not given beside the values
- measurement parameters: HepG2 cells, read-out: Inhibition
assay endpoint: cytotoxicity at 70.5 h (%)

> print(dat)
                                    compound  measured.number
 1  CN(CCCO)C(=O)c1cc(COc2ccc3c(c2)CCCC3)on1            -7.55
 2  CN1CCCN(C(=O)c2cccn2-c2ccc3c(c2)OCCO3)CC1            -5.24
 3     O=C(c1cnco1)N1CCC(Cc2cnc3ccccc3c2)CC1            -1.49
 4  CN1CC(=O)N(c2cccnc2)CC12CCN(C(=O)C1CCCCC1)C2 (stereo not drawn)             36.1
 5            CCc1cnc(C)nc1N(C)CCCc1cnn(C)c1            -12.1
 6      COc1ccc(-c2nccn2CCN2CCCCC2)c(OC)c1OC             4.66
 7  COc1ccccc1CN1CC[C@H](c2nnc(-c3cncn3C)o2)C1            -1.04
 8  Cc1cc(C(=O)N2CCC3(CCCN(CC4CC4)C3=O)C2)c(C)n1C (stereo not drawn)             -2.9
 9          CC(C)CCN1CCN(Cc2nc(C(C)C)no2)CC1           -0.333
10  CCN(CC1CCOC1)C(=O)NCc1nnc2n1CCC2 (stereo not drawn)            -5.15
11  CCOC(=O)N1CCNC(c2cccs2)C1 (stereo not drawn)             21.8
12  CS(=O)(=O)N1CCO[C@@H]2CN(Cc3ccc(F)cc3)CC[C@@H]2C1            -4.41
13  Cc1csc(C2CCCCN2C(=O)c2cc(C3CC3)[nH]n2)n1 (stereo not drawn)             -2.5
14    Cc1cnn(CCNCc2nc(CNC(=O)c3ccccc3)no2)c1             22.6
15  c1csc(-c2nc(CN3CCOC(Cn4cccn4)C3)co2)c1 (stereo not drawn)            -8.17
16             Cc1cc(NC(=O)Cn2ncc(Br)c2C)no1            -2.58
17  Cc1csc(NC(=O)CN2CCc3c(nc(C4CC4)n3C)C2)n1            -1.68
18  CN(Cc1ccccn1)C1CCCN(c2cccnn2)C1 (stereo not drawn)             3.01
19  COCc1ccccc1C(=O)NS(=O)(=O)c1ccc2c(c1)CCC(=O)N2            -9.29
20  COc1ccccc1CN1C(=O)O[C@@H]2CN(c3nc(C)cc(C)n3)C[C@@H]21             -3.9
21  CCc1noc(C)c1C(=O)N1CCN(c2nc(C)cc(OC)n2)CC1             5.53
22          Cn1cc2ncn(CCCOc3cccnc3)c(=O)c2n1             22.8
23  Cc1cnn(CCCNC(=O)CCC2CCCCN2C)c1 (stereo not drawn)            -13.1
24            COc1cc(-n2cccc2)c(Cl)cc1C(N)=O            -3.56
25  CCS(=O)(=O)N1CCc2ccc(NC(=O)Nc3ccc(F)cc3F)cc21               61
26  Cc1nnc(N2C[C@H](OCC3CCCC3)[C@H]3OCCC[C@H]32)s1            -5.71
27  CC(=O)N1CCO[C@@H]2CN(Cc3ccccc3F)C[C@@H]2C1            -5.88
28    CC(C)CNC(=O)CNc1c(NCc2ccccn2)c(=O)c1=O             2.45
29       Cc1cccc(C(=O)N2CCCN(Cc3cscn3)CC2)c1            -4.03
30  CC1(C)CC(NC(=O)c2cnn(-c3ccccc3F)c2N)CC(C)(C)N1             19.7
31       N#Cc1cccc(Cl)c1NCCc1n[nH]c(=O)[nH]1            -3.93
32  CCCC(NC(=O)c1occc1C)c1nnn[nH]1 (stereo not drawn)            -1.34
33  COc1ccnc(C(=O)N2CCCC(c3noc(C)n3)C2)c1 (stereo not drawn)            -12.8
34  CC(=O)NC(C)C(=O)N(Cc1ccc(C)c(C)c1)C1CC1 (stereo not drawn)            0.332
35          CCN(Cc1cnn(CC)c1)Cc1c(Cl)cncc1Cl            -2.13
36  CCn1c(CN2CCCC(Cn3cncn3)C2)nc2c(F)cccc21 (stereo not drawn)             1.73
37            O=C(NCC1(O)CCCC1)c1ccc2nsnc2c1            -20.9
38  Cc1cnc(CN2CCC(N(C)Cc3noc(C4CC4)n3)C2)o1 (stereo not drawn)             11.7
39        Cc1cc(N(C)Cc2ccsc2)n2nc(C)c(C)c2n1            -10.9
40  CC(C)Nc1cc(N2CCC(n3cc(C4CC4)nn3)CC2)ncn1             23.9
41  Cc1sc2ncc(-c3ccnc(NC4CCN(C)CC4)n3)c(=O)n2c1C            -2.25
42       Cc1c(CN2CCCCC2)c(O)n(CCO)c(=O)c1C#N            -2.11
43  Cc1nc(CN2C[C@@H](NC(=O)C3CCC3)[C@H]3COC[C@H]32)cs1            -5.49
44   O=C(Cn1nc(-c2ccc(F)cc2)oc1=O)NCc1ccncc1            -12.1
45     Brc1cc2c(cc1CN1CCC(N3CCCCC3)CC1)OCCO2            -2.82
46  CC(=O)N1CCCC1c1cccc(NCc2ccccc2F)n1 (stereo not drawn)            -1.09
47  CC(C)n1ncc2c1NC(=O)CSC2C(F)(F)F (stereo not drawn)              -21
48         CC(=O)N(C)Cc1ccccc1NCc1c(C)cccc1C            -3.43
